SYSTEM_UNDER_TEST: T1, human IgG2 (human, UniProt P01859-1 1-326 = IgG part)
T1 construct: Calbiochem; plasma IgG2 in anisotropy studies, myeloma-derived (cat. 400122) in batch/column studies; also called hIgG2
ASSAY_COMMENT: anisotropy; pH 7.5 - salt
TEST_READOUT: pKd
A value of pKd is the negative decimal logarithm of a concentration given in moles per litre.

Tell me pKd reported for Ac-AGTYWCTFWELPCDPAPGPEGGGK-NH2 (cysteine pairing not given here, immobilised in batch/column assays) [DX404]
5.07
